Target: T1, Human Siglec-9 mutant M7 (human, UniProt Q9Y336 18-463)
T1 construct: Expressed on HEK293T cells; also called Mutant 7
T1 sequence (Q9Y336 other isoform, or with tags, fused parts or gaps mutant): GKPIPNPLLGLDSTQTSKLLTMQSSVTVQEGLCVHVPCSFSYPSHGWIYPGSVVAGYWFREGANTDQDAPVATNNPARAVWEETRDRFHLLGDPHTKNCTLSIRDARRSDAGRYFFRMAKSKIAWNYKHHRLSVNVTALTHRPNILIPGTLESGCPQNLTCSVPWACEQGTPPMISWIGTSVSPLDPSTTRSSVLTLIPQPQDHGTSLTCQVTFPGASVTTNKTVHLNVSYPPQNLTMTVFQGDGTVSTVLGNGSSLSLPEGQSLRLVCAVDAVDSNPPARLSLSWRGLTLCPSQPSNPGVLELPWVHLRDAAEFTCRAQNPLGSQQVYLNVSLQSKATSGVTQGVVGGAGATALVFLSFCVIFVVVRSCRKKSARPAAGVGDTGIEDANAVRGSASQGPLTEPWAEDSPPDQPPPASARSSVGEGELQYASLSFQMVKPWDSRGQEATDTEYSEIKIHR
Experiment: flow cytometry, HEK293T transfectants
measured attribute: binding result

binder: Fab.A (Fab of mAbA) (Fab, V domains shown) VH: QVQLQQPGAELVKPGSPVKLSCKASYFTFTSYWMHWVRQRPGQGLEWIGEINPSNGHTNYNEKFESKATLTVDRSSSTAYMQLSSLTSEDSAVFYCANGVESYDFDDALDYWGQGTSVTVSS VL: DIQMTQTTSSLSASLGDRVTISCRASQDINNYLNWYQQKPDGTIKLLIYYTSRLHSGVPSRFSGSGSGTDYSLTINNLEQEDIATYFCQQGNTLPFTFGGGTKLEIK
measured attribute: binding result
observed result: binds

binder: mAbC (antibody, human IgG1, V domains shown) VH: QIQLVQSGPELKKPGETVKISCKASGYTFTNYEMNWVKEAPGKGLKWMGWINTYTGESTYADDFKGRFAFSLETSASTVYLQINNLKDEDVATYFCVRDDYGRSYGFAYWGQGTLVTVSA VL: NIVLTQSPASLTVSLGQRANISCRASESVDSYGNSFMHWYQQKPGQPPKLLIYLASKLESGVPARFSGSGSRTDFTLTIDPVETDDAATYYCHQNNEDPPWTFGGGTKLEIK
measured attribute: binding result
observed result: binds

binder: mAbA (antibody, human IgG1, V domains shown) VH: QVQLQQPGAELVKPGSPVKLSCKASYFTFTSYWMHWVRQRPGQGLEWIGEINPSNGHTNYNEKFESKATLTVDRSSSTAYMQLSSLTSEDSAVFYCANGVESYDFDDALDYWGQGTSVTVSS VL: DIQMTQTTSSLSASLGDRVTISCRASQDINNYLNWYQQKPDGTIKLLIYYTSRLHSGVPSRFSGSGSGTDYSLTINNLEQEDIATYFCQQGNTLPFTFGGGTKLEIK
measured attribute: binding result
observed result: binds
